These entries and their values trace back to the kinase profiling compilation of Christmann-Franck et al. (2016).

Molecular target: GRK7 (human) (UniProt Q8WTQ7)
Sequence (Q8WTQ7 whole entry, looked up): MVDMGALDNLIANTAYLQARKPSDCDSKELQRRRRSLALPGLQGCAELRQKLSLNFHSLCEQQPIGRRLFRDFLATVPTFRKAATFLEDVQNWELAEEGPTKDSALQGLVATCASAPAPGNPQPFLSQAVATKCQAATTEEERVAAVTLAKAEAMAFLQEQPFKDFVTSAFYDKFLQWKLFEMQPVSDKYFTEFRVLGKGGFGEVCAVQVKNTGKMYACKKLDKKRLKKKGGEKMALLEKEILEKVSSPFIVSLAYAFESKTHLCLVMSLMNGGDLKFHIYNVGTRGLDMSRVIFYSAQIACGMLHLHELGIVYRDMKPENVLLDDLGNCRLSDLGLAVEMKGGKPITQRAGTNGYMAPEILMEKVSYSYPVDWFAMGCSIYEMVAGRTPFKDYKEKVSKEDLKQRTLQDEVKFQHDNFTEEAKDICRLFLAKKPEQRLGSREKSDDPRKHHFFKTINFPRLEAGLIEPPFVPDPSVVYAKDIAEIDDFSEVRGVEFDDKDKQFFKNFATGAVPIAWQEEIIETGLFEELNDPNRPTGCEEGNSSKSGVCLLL
Test: radiometric filter-binding kinase assay, Kinase HotSpot
Details: compound 0.5 µM; ATP 10 µM
PROPERTY_NAME: residual activity (%)
The figure you give is taken to be in %; do not add the unit.

[
  {
    "ENTRY_SMILES": "CN[C@@H]1C[C@H]2O[C@@](C)([C@@H]1OC)n1c3ccccc3c3c4c(c5c6ccccc6n2c5c31)C(=O)NC4",
    "ASSAYED_TARGET": "GRK7 (human) (UniProt Q8WTQ7)",
    "DATA_VALUE": 0.737
  }
]

Ask | So what does the record say about residual activity for `FC(F)(F)c1ccc(/C=C/c2nc(COc3ccc(CCCCn4ccnn4)cc3)co2)cc1` ?
Reply | 97.8

Ask | Please give the measured residual activity for this molecule: `CCc1nc(-c2ccc(OC)cc2)[nH]c1-c1ccncc1`
Reply | 101

Ask | I'd like to know its residual activity. The molecule in question is `CCOc1cc2ncnc(Nc3cccc(Br)c3)c2cc1OCC`
Reply | 102

Ask | What value of measured residual activity is listed for `O=C1NC(=O)c2cc(Nc3ccc(F)cc3)c(Nc3ccc(F)cc3)cc21` ?
Reply | 106
